Assay: Chemical stability of the compound assessed as parent compound remaining at 1 mg/ml measured after 14 days at 45 degC by HPLC method (reference value: 100%)
Format: physicochemical
Conditions: read-out: Stability
Measured property: remaining at 336 h, 1 mg/ml (%)

Structure smiles string	remaining at 336 h, 1 mg/ml, %
CS(=O)(=O)c1ccc(NNC(=O)CC[C@H](N)C(=O)O)c(F)c1	87
Cc1ccc(NNC(=O)CC[C@H](N)C(=O)O)cc1	72.2

I = CS(=O)(=O)c1ccc(NNC(=O)CC[C@H](N)C(=O)O)cc1
II = Cc1ccccc1NNC(=O)CC[C@H](N)C(=O)O
# input // returns I or II , whichever has the lower remaining at 336 h, 1 mg/ml Provide the label of your selected option as the answer.
# output II
